Listed below: relative viability values for each entry.
Tested on: EMC-BAC-2
Assay: relative viability (nuclei count vs DMSO), 5 days (fraction); higher = more cells survive
Details: first compound 2.53 µM

{"COMPOUND": "C=C1C(=O)O[C@@H](CCCCCCCC)[C@@H]1C(=O)O [C-75] + O=C(c1cc(Cc2n[nH]c(=O)c3ccccc23)ccc1F)N1CCN(C(=O)C2CC2)CC1 [Olaparib] (partner 8 µM)", "relative viability": 0.389}
{"COMPOUND": "Oc1nc(-c2ccc(C(F)(F)F)cc2)nc2c1CSCC2 [XAV939] + CC(C)C[C@H](NC(=O)[C@H](Cc1ccccc1)NC(=O)c1cnccn1)B(O)O [Bortezomib] (partner 0.002 µM)", "relative viability": 0.636}
{"COMPOUND": "C=C1C(=O)O[C@@H](CCCCCCCC)[C@@H]1C(=O)O [C-75] + C[C@]1(O)C[C@@H](c2nc(-c3ccc4ccc(-c5ccccc5)nc4c3)c3c(N)nccn32)C1 [Linsitinib] (partner 1 µM)", "relative viability": 0.761}
{"COMPOUND": "C=C1C(=O)O[C@@H](CCCCCCCC)[C@@H]1C(=O)O [C-75] + CC(=O)Nc1cccc(-n2c(=O)n(C3CC3)c(=O)c3c(Nc4ccc(I)cc4F)n(C)c(=O)c(C)c32)c1 [Trametinib] (partner 0.02 µM)", "relative viability": 0.803}
{"COMPOUND": "C=C1C(=O)O[C@@H](CCCCCCCC)[C@@H]1C(=O)O [C-75] + Cc1nc(NC(=O)N2CCC[C@H]2C(N)=O)sc1-c1ccnc(C(C)(C)C(F)(F)F)c1 [Alpelisib] (partner 2 µM)", "relative viability": 0.679}
{"COMPOUND": "C=C1C(=O)O[C@@H](CCCCCCCC)[C@@H]1C(=O)O [C-75] + O=C(CCCCCCC(=O)Nc1ccccc1)NO [Vorinostat] (partner 1 µM)", "relative viability": 0.355}
{"COMPOUND": "Oc1nc(-c2ccc(C(F)(F)F)cc2)nc2c1CSCC2 [XAV939] + O=C(c1cc(Cc2n[nH]c(=O)c3ccccc23)ccc1F)N1CCN(C(=O)C2CC2)CC1 [Olaparib] (partner 8 µM)", "relative viability": 0.301}
{"COMPOUND": "C=C1C(=O)O[C@@H](CCCCCCCC)[C@@H]1C(=O)O [C-75] + Cc1nc(Nc2ncc(C(=O)Nc3c(C)cccc3Cl)s2)cc(N2CCN(CCO)CC2)n1 [Dasatinib] (partner 0.075 µM)", "relative viability": 0.261}
{"COMPOUND": "Oc1nc(-c2ccc(C(F)(F)F)cc2)nc2c1CSCC2 [XAV939] + NC(=O)Nc1cc(-c2cccc(F)c2)sc1C(=O)N[C@H]1CCCNC1 [AZD7762] (partner 0.2 µM)", "relative viability": 0.878}

Cited source for all entries: the supplement of paper PMC10307832
